Reported values of inhibition for individual entries
Tested on: Epidermal growth factor receptor (Homo sapiens), P00533 [L861Q]
Sequence (P00533 whole entry L861Q): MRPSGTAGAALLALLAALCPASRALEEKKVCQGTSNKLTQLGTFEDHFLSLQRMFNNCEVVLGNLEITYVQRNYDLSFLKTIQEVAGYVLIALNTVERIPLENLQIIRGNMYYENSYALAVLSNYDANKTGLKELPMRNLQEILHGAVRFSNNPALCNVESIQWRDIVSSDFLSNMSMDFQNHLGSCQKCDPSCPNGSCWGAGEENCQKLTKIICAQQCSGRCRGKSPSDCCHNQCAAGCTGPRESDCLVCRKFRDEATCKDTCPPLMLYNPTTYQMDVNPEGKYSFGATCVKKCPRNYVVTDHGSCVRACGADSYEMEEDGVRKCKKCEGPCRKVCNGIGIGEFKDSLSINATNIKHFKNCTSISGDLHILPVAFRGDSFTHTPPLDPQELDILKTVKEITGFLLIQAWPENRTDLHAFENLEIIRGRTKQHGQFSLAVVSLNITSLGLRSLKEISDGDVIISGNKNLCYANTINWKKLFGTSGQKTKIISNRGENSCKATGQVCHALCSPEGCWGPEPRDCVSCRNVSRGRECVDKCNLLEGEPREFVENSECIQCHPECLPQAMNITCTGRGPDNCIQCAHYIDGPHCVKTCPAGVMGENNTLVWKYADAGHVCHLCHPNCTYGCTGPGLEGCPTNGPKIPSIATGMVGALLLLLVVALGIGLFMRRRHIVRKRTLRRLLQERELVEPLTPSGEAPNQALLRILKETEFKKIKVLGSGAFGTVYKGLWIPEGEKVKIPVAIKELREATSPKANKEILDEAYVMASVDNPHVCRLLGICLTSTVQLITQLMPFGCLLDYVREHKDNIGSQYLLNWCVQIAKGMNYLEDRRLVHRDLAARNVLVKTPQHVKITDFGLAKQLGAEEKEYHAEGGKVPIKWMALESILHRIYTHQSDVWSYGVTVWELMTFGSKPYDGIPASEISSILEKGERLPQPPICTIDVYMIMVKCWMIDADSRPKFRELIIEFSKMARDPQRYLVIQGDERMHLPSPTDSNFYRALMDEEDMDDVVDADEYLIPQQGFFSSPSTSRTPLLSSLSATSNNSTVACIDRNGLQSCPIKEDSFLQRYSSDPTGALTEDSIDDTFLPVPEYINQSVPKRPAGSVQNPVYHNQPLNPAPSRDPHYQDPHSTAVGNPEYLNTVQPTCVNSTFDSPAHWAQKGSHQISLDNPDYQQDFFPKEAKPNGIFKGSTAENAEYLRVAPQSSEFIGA
condition.context: at 1 µM
Give the value, in units of %, as a plain number.

A selection of reference data follows.
| item.smiles | u | inhibition |
| --- | --- | --- |
| COc1ccc(-c2nn3ncccc3c2-c2ccnc(Nc3cccc(C(F)(F)F)c3)n2)cc1 | % | 11.8 |
| NC(=O)c1sc(-n2cnc3ccccc32)cc1OCc1ccccc1Br | % | 2.89 |
| COc1cc2ncnc(Nc3ccc(C)c(O)c3)c2cc1OC | % | 96.2 |
| O=C1Nc2ccc(-c3cccnc3)cc2C1=Cc1cc(Br)c(O)c(Br)c1 | % | 2.2 |
| COc1cccc(-n2ncc3c(N/N=C/c4ccc(S(C)(=O)=O)cc4)ncnc32)c1 | % | 20.6 |
| O=C(Nc1ccc(Oc2ccc3[nH]c(NC(=O)c4ccco4)nc3c2)cc1)Nc1cc(C(F)(F)F)ccc1F | % | -2.44 |
| COc1cc2ncn(-c3cc(OCc4ccccc4S(C)(=O)=O)c(C#N)s3)c2cc1OC | % | 8.31 |
| CC(C)c1ccc2c(c1)NC(=O)/C2=N/Nc1ccc(S(N)(=O)=O)cc1 | % | -2.09 |

**Query** Enter inhibition (test system Epidermal growth factor receptor (Homo sapiens), P00533 [L861Q]) for `OCc1ccc(-c2nc(-c3ccccn3)c(-c3ccc4c(c3)OCO4)[nH]2)cc1`
**Result** -0.4

**Query** Enter inhibition (test system Epidermal growth factor receptor (Homo sapiens), P00533 [L861Q]) for `CCS(=O)(=O)c1ccc(OC)c(Nc2ncc(-c3cccc(OC)c3)o2)c1`
**Result** 6.2
